Data provenance is patent US20190315806A1.

assay: Nephrotoxicity test, renal cytotoxicity by MTT method; format: cell-based; details: African green monkey
Where a SMILES comes first, the peptide text is derived from it. Bridges are numbered along the chain shown (N, C = ends). [ ]: non-standard residue; d: D form. The star is where a group is joined. Heptanoyl(6-Me) = CC(C)CCCCC(=O)*; X2 = CC[C@H](C)CCCCC(=O)*; dDab = NCC[C@@H](N)C(=O)O; Octanoyl = CCCCCCCC(=O)*; Dab = NCC[C@H](N)C(=O)O; Nva = CCC[C@H](N)C(=O)O
Provide the recorded IC50 at 72 h for the entries that follow.
Give bare numbers, in mg/L.

{"MOLECULE": "CC[C@H](C)CCCCC(=O)N[C@@H](CCN)C(=O)N[C@H](C(=O)N[C@H](CO)C(=O)N[C@H]1CCNC(=O)[C@H]([C@@H](C)O)NC(=O)[C@H](CCN)NC(=O)[C@H](CCN)NC(=O)[C@H]([C@@H](C)O)NC(=O)[C@@H](CC(C)C)NC(=O)[C@H](CCN)NC1=O)[C@@H](C)O [Compound 58] (X2-[Dab]T[dS][Dab][Dab][dL]T[Dab][Dab]T; lactam 4-C)", "VALUE OBSERVED": 189}
{"MOLECULE": "CC(C)CCCCC(=O)N[C@@H](CCN)C(=O)N[C@H](C(=O)N[C@H](CCN)C(=O)N[C@H]1CCNC(=O)[C@H]([C@@H](C)O)NC(=O)[C@H](CCN)NC(=O)[C@H](CCN)NC(=O)[C@H]([C@@H](C)O)NC(=O)[C@@H](CC(C)C)NC(=O)[C@H](CCN)NC1=O)[C@@H](C)O [Compound 31] ({Heptanoyl(6-Me)}-[Dab]T[dDab][Dab][Dab][dL]T[Dab][Dab]T; lactam 4-C)", "VALUE OBSERVED": 288}
{"MOLECULE": "CCCCCCCC(=O)N[C@@H](CCN)C(=O)N[C@H](C(=O)N[C@@H](CCN)C(=O)N[C@H]1CCNC(=O)[C@H]([C@@H](C)O)NC(=O)[C@H](CCN)NC(=O)[C@H](CCN)NC(=O)[C@H](CC(C)C)NC(=O)[C@@H](Cc2ccccc2)NC(=O)[C@H](CCN)NC1=O)[C@@H](C)O [Compound 44] (Octanoyl-[Dab]T[Dab][Dab][Dab][dF]L[Dab][Dab]T; lactam 4-C)", "VALUE OBSERVED": 86.4}
{"MOLECULE": "CC[C@H](C)CCCCC(=O)N[C@@H](CCN)C(=O)N[C@H](C(=O)N[C@@H](CCN)C(=O)N[C@H]1CCNC(=O)[C@H]([C@@H](C)O)NC(=O)[C@H](CCN)NC(=O)[C@H](CCN)NC(=O)[C@H]([C@@H](C)CC)NC(=O)[C@@H](Cc2ccccc2)NC(=O)[C@H](CCN)NC1=O)[C@@H](C)O [Compound 47] (X2-[Dab]T[Dab][Dab][Dab][dF]I[Dab][Dab]T; lactam 4-C)", "VALUE OBSERVED": 74.7}
{"MOLECULE": "CC[C@H](C)CCCCC(=O)N[C@@H](CCN)C(=O)N[C@H](C(=O)N[C@@H](CCN)C(=O)N[C@H]1CCNC(=O)[C@H]([C@@H](C)O)NC(=O)[C@H](CCN)NC(=O)[C@H](CCN)NC(=O)[C@H](C(C)C)NC(=O)[C@@H](CC(C)C)NC(=O)[C@H](CCN)NC1=O)[C@@H](C)O [Compound 72] (X2-[Dab]T[Dab][Dab][Dab][dL]V[Dab][Dab]T; lactam 4-C)", "VALUE OBSERVED": 131}
{"MOLECULE": "CC(C)CCCCC(=O)N[C@@H](CCN)C(=O)N[C@H](C(=O)N[C@@H](CCN)C(=O)N[C@H]1CCNC(=O)[C@H]([C@@H](C)O)NC(=O)[C@H](CCN)NC(=O)[C@H](CCN)NC(=O)[C@H](C(C)C)NC(=O)[C@@H](CC(C)C)NC(=O)[C@H](CCN)NC1=O)[C@@H](C)O [Compound 76] ({Heptanoyl(6-Me)}-[Dab]T[Dab][Dab][Dab][dL]V[Dab][Dab]T; lactam 4-C)", "VALUE OBSERVED": 225}
{"MOLECULE": "CC(C)CCCCC(=O)N[C@@H](CCN)C(=O)N[C@H](C(=O)N[C@H](CO)C(=O)N[C@H]1CCNC(=O)[C@H]([C@@H](C)O)NC(=O)[C@H](CCN)NC(=O)[C@H](CCN)NC(=O)[C@H]([C@@H](C)O)NC(=O)[C@@H](CC(C)C)NC(=O)[C@H](CCN)NC1=O)[C@@H](C)O [Compound 59] ({Heptanoyl(6-Me)}-[Dab]T[dS][Dab][Dab][dL]T[Dab][Dab]T; lactam 4-C)", "VALUE OBSERVED": 318}
{"MOLECULE": "CCC[C@@H]1NC(=O)[C@@H](CC(C)C)NC(=O)[C@H](CCN)NC(=O)[C@@H](NC(=O)[C@H](CCN)NC(=O)[C@@H](NC(=O)[C@H](CCN)NC(=O)CCCC[C@@H](C)CC)[C@@H](C)O)CCNC(=O)[C@H]([C@@H](C)O)NC(=O)[C@H](CCN)NC(=O)[C@H](CCN)NC1=O [Compound 73] (X2-[Dab]T[Dab][Dab][Dab][dL][Nva][Dab][Dab]T; lactam 4-C)", "VALUE OBSERVED": 108}

Could I get IC50 at 72 h for every one of these entries?
1. CC[C@H](C)[C@@H]1NC(=O)[C@@H](CC(C)C)NC(=O)[C@H](CCN)NC(=O)[C@@H](NC(=O)[C@H](CCN)NC(=O)[C@@H](NC(=O)[C@H](CCN)NC(=O)CCCCC(C)C)[C@@H](C)O)CCNC(=O)[C@H]([C@@H](C)O)NC(=O)[C@H](CCN)NC(=O)[C@H](CCN)NC1=O [Compound 75] ({Heptanoyl(6-Me)}-[Dab]T[Dab][Dab][Dab][dL]I[Dab][Dab]T; lactam 4-C)
2. CC[C@H](C)CCCCC(=O)N[C@@H](CCN)C(=O)N[C@H](C(=O)N[C@@H](CCN)C(=O)N[C@H]1CCNC(=O)[C@H](CC(C)C)NC(=O)[C@H](CCN)NC(=O)[C@H](CCN)NC(=O)[C@H](CC(C)C)NC(=O)[C@@H](Cc2ccccc2)NC(=O)[C@H](CCN)NC1=O)[C@@H](C)O [Compound 127] (X2-[Dab]T[Dab][Dab][Dab][dF]L[Dab][Dab]L; lactam 4-C)
3. CC(C)CCCCC(=O)N[C@@H](CCN)C(=O)N[C@H](C(=O)N[C@@H](CCN)C(=O)N[C@H]1CCNC(=O)[C@H]([C@@H](C)O)NC(=O)[C@H](CCN)NC(=O)[C@H](CCN)NC(=O)[C@H]([C@@H](C)O)NC(=O)[C@@H](CC(C)C)NC(=O)[C@H](CCN)NC1=O)[C@@H](C)O [Compound 103] ({Heptanoyl(6-Me)}-[Dab]T[Dab][Dab][Dab][dL]T[Dab][Dab]T; lactam 4-C)

[199, 17.2, 276]

###

test system: Pseudomonas aeruginosa ATCC 27853; type: cell-based; details: ATCC 27853
Where a SMILES comes first, the peptide text is derived from it. Bridges are numbered along the chain shown (N, C = ends). [ ]: non-standard residue; d: D form. The star is where a group is joined. dPhe(4-CF3) = N[C@H](Cc1ccc(C(F)(F)F)cc1)C(=O)O; dPhe(4-NH2) = Nc1ccc(C[C@@H](N)C(=O)O)cc1; Heptanoyl(6-Me) = CC(C)CCCCC(=O)*; X2 = CC[C@H](C)CCCCC(=O)*; dDab = NCC[C@@H](N)C(=O)O; Octanoyl = CCCCCCCC(=O)*; Dab = NCC[C@H](N)C(=O)O; Nva = CCC[C@H](N)C(=O)O
Exercise: state measured MIC P. aeruginosa ATCC 27853 for each of the compounds provided.
Number plus unit, in that order.

Fill in MIC P. aeruginosa ATCC 27853 for each of the 7 compounds listed.
1. CC[C@H](C)CCCCC(=O)N[C@@H](CCN)C(=O)N[C@H](C(=O)N[C@@H](CCN)C(=O)N[C@H]1CCNC(=O)[C@H]([C@@H](C)O)NC(=O)[C@H](CCN)NC(=O)[C@H](CCN)NC(=O)[C@H](CC(C)C)NC(=O)[C@@H](Cc2ccc(C(F)(F)F)cc2)NC(=O)[C@H](CCN)NC1=O)[C@@H](C)O [Compound 23] (X2-[Dab]T[Dab][Dab][Dab][dPhe(4-CF3)]L[Dab][Dab]T; lactam 4-C)
2. CC[C@H](C)CCCCC(=O)N[C@@H](CCN)C(=O)N[C@H](C(=O)N[C@@H](CCN)C(=O)N[C@H]1CCNC(=O)[C@H]([C@@H](C)O)NC(=O)[C@H](CCN)NC(=O)[C@H](CCN)NC(=O)[C@H](CC(C)C)NC(=O)[C@@H](Cc2ccc(N)cc2)NC(=O)[C@H](CCN)NC1=O)[C@@H](C)O [Compound 11] (X2-[Dab]T[Dab][Dab][Dab][dPhe(4-NH2)]L[Dab][Dab]T; lactam 4-C)
3. CC(C)CCCCC(=O)N[C@@H](CCN)C(=O)N[C@H](C(=O)N[C@H](CCN)C(=O)N[C@H]1CCNC(=O)[C@H]([C@@H](C)O)NC(=O)[C@H](CCN)NC(=O)[C@H](CCN)NC(=O)[C@H]([C@@H](C)O)NC(=O)[C@@H](CC(C)C)NC(=O)[C@H](CCN)NC1=O)[C@@H](C)O [Compound 31] ({Heptanoyl(6-Me)}-[Dab]T[dDab][Dab][Dab][dL]T[Dab][Dab]T; lactam 4-C)
4. CC[C@H](C)CCCCC(=O)N[C@@H](CCN)C(=O)N[C@H](C(=O)N[C@H](CCN)C(=O)N[C@H]1CCNC(=O)[C@H]([C@@H](C)O)NC(=O)[C@H](CCN)NC(=O)[C@H](CCN)NC(=O)[C@H]([C@@H](C)O)NC(=O)[C@@H](Cc2ccccc2)NC(=O)[C@H](CCN)NC1=O)[C@@H](C)O [Compound 143] (X2-[Dab]T[dDab][Dab][Dab][dF]T[Dab][Dab]T; lactam 4-C)
5. CCCCCCCC(=O)N[C@@H](CCN)C(=O)N[C@H](C(=O)N[C@@H](CO)C(=O)N[C@H]1CCNC(=O)[C@H]([C@@H](C)O)NC(=O)[C@H](CCN)NC(=O)[C@H](CCN)NC(=O)[C@H](CC(C)C)NC(=O)[C@@H](Cc2ccccc2)NC(=O)[C@H](CCN)NC1=O)[C@@H](C)O [Compound 54] (Octanoyl-[Dab]TS[Dab][Dab][dF]L[Dab][Dab]T; lactam 4-C)
6. CC[C@H](C)CCCCC(=O)N[C@@H](CCN)C(=O)N[C@H](C(=O)N[C@H](CO)C(=O)N[C@H]1CCNC(=O)[C@H]([C@@H](C)O)NC(=O)[C@H](CCN)NC(=O)[C@H](CCN)NC(=O)[C@H]([C@@H](C)O)NC(=O)[C@@H](Cc2ccccc2)NC(=O)[C@H](CCN)NC1=O)[C@@H](C)O [Compound 115] (X2-[Dab]T[dS][Dab][Dab][dF]T[Dab][Dab]T; lactam 4-C)
7. CC(C)CCCCC(=O)N[C@@H](CCN)C(=O)N[C@H](C(=O)N[C@H](CO)C(=O)N[C@H]1CCNC(=O)[C@H]([C@@H](C)O)NC(=O)[C@H](CCN)NC(=O)[C@H](CCN)NC(=O)[C@H]([C@@H](C)O)NC(=O)[C@@H](Cc2ccccc2)NC(=O)[C@H](CCN)NC1=O)[C@@H](C)O [Compound 116] ({Heptanoyl(6-Me)}-[Dab]T[dS][Dab][Dab][dF]T[Dab][Dab]T; lactam 4-C)

["2 µg/mL", "2 µg/mL", "1 µg/mL", "1 µg/mL", "1 µg/mL", "2 µg/mL", "2 µg/mL"]

For each of the items listed, what is its MIC P. aeruginosa ATCC 27853?
1. CC[C@H](C)CCCCC(=O)N[C@@H](CCN)C(=O)N[C@H](C(=O)N[C@H](CCN)C(=O)N[C@H]1CCNC(=O)[C@H]([C@@H](C)O)NC(=O)[C@H](CCN)NC(=O)[C@H](CCN)NC(=O)[C@H]([C@@H](C)O)NC(=O)[C@@H](CC(C)C)NC(=O)[C@H](CCN)NC1=O)[C@@H](C)O [Compound 30] (X2-[Dab]T[dDab][Dab][Dab][dL]T[Dab][Dab]T; lactam 4-C)
2. CCC[C@@H]1NC(=O)[C@@H](CC(C)C)NC(=O)[C@H](CCN)NC(=O)[C@@H](NC(=O)[C@H](CCN)NC(=O)[C@@H](NC(=O)[C@H](CCN)NC(=O)CCCCC(C)C)[C@@H](C)O)CCNC(=O)[C@H]([C@@H](C)O)NC(=O)[C@H](CCN)NC(=O)[C@H](CCN)NC1=O [Compound 77] ({Heptanoyl(6-Me)}-[Dab]T[Dab][Dab][Dab][dL][Nva][Dab][Dab]T; lactam 4-C)
3. CCCCCCCC(=O)N[C@@H](CCN)C(=O)N[C@H](C(=O)N[C@@H](CCN)C(=O)N[C@H]1CCNC(=O)[C@H]([C@@H](C)O)NC(=O)[C@H](CCN)NC(=O)[C@H](CCN)NC(=O)[C@H]([C@@H](C)CC)NC(=O)[C@@H](CC(C)C)NC(=O)[C@H](CCN)NC1=O)[C@@H](C)O [Compound 79] (Octanoyl-[Dab]T[Dab][Dab][Dab][dL]I[Dab][Dab]T; lactam 4-C)

1. 1 µg/mL
2. 1 µg/mL
3. 1 µg/mL
